Documented z-score across a set of compounds
Experiment: E. coli acrAB mutant growth effects, primary screen, E. coli filamentation inducers, strain DRC39, OD650, 48 h (AID 1179);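 further: screen aims at cell division blockers that make cells filament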
Conditions: E. coli DRC39 delta-acrAB growth, higher = more signal, called active from +8 up or from −8 down
Write the number on its own, no unit after it.

- COMPOUND: "COc1ccc(O[C@H]2C=C[C@@H](c3ccccc3)O[C@@H]2CON=C[C@@H](C)[C@H](OCc2ccccc2)C(C)C)cc1"
  TEST VALUE: 1.01
- COMPOUND: "COc1ccc(O[C@H]2C=C[C@@H](c3ccccc3)O[C@@H]2COC(=O)CCC(C)=NOC(C)CN2CCCCc3nc(C)c(C)cc32)cc1 (some centres undefined)"
  TEST VALUE: 0.42
- COMPOUND: "O=C(CS)NCCCCCNC(=O)[C@H]1C[C@H]2C(=O)N3CCC[C@H]3C(=O)N2[C@H]1c1cccc(OCCO)c1"
  TEST VALUE: 0.36

Value of z-score reported for the compound "CC(CCC(=O)OC[C@H]1O[C@H](C#Cc2ccccc2)C=C[C@@H]1Oc1ccc(C)cc1)=NOC[C@@H](O)COCc1ccco1" is 0.895

Value of z-score reported for the compound "C#CCCCON=C1C[C@@H](O)[C@@H](O)[C@@H]2[C@@H]3C(=O)N(c4cccc(Oc5ccccc5)c4)C(=O)[C@@H]3CC[C@@H]12" is -0.0303

Value of z-score reported for the compound "C[C@@H]1C=CCC(=O)OC[C@H](C)C(=O)N2CCC[C@H]2C(=O)OC1" is 0.528

Value of z-score reported for the compound CCOC(=O)[C@H](CC(C)C)NC(=O)CCC1CC(OC(=O)NCc2cccc3ccccc23)CC2(CCCC(COC(=O)NCCN3CCOCC3)O2)O1 (some centres undefined) is -0.88

Value of z-score reported for the compound "CCOC(=O)NN=C1C[C@@H](O)[C@@H](O)[C@@H]2[C@@H]3C(=O)N(C4CCCCC4)C(=O)[C@@H]3CC[C@@H]12" is -0.499

Value of z-score reported for the compound O[C@@H](Cc1ccccc1)[C@H]1C2C=CCCC(c3ccccc3)=C2CN1Cc1cccc(Cl)c1 (some centres undefined) is 1.85

---

Tested on: XIP peptide (Xip251-270)
Assay: small-molecule binders of XIP peptide, primary screen, biochemical, small-molecule microarray, fluorescence 635/667 nm, 0.5 µg/mL protein (AID 1183)
Settings: small-molecule microarray binding, fluorescence 635 nm; higher = more signal
QUANTITY: composite z-score
Write the number on its own, no unit after it.

Some molecules with known composite z-score results, for comparison:
- MOLECULE: "O=C1[C@H]2[C@H]3[C@H](O)[C@H](O)CC(=NOC[C@@H](O)COCc4ccco4)[C@H]3CC[C@H]2C(=O)N1Cc1ccc2c(c1)OCO2"
  TEST VALUE: 0.127
- MOLECULE: "O=C1[C@H]2[C@H]3[C@H](O)[C@H](O)CC(=NOC[C@@H](O)COCc4ccco4)[C@@H]3CC[C@H]2C(=O)N1c1ccc(F)cc1F"
  TEST VALUE: -0.103
- MOLECULE: "C[N+](C)(C)CCCCCCNC(=O)[C@@H]1C[C@@H]2C(=O)N3CCC[C@H]3C(=O)N2[C@@H]1c1cccc(OCCO)c1"
  TEST VALUE: 0.697

Value of composite z-score reported for the molecule CN1C(=O)C2C(C1=O)C1C=C(CCCO)C2C(c2ccc(CN3CCCC3)cc2)N1C (stereo not drawn) is -0.598

Value of composite z-score reported for the molecule "C=C(/C(=C/C[C@H](OC(C)=O)c1ccc(OCCO)cc1)c1cnc2ccccc2c1)C(C)C" is 0.605

---

Test system: XIP peptide (Xip251-270) binding
Test: small-molecule binders of XIP peptide, primary screen, biochemical, small-molecule microarray, fluorescence 635/667 nm, 0.1 µg/mL protein (AID 1182)
Conditions: fluorescent protein binding, 635 nm, higher = more signal, called active from +8 up or from −8 down
So basically: composite z-score at 0.2 or higher? That is 1. Lower than 0.2? That is 0.

Look over these answered cases.
- SMILES CODE: "CCc1cc2c(nc1CC)CCN(CCC(C)=NOC[C@@H](O)[C@H]1O[C@@H]3OC(C)(C)O[C@@H]3[C@H]1O)C2"
  ANSWER LABEL: 1
- SMILES CODE: "CCN1C(=O)[C@H]2[C@H]3[C@H](O)[C@H](O)CC(=NO[C@@H]4O[C@H](CO)[C@@H](O)[C@H](O)[C@H]4O)[C@@H]3CC[C@H]2C1=O"
  ANSWER LABEL: 0
- SMILES CODE: "O=C1C[C@@H](O)[C@@H](O)[C@@H]2[C@@H]3C(=O)N(C4CCCCC4)C(=O)[C@@H]3CC[C@H]12"
  ANSWER LABEL: 0

Attention now turns to another entry.
[Q] Tell me whether composite z-score is at least 0.2 here: "COC(=O)[C@@H]1CCCN1C(=O)[C@@H](C)CO"
[A] 1

---

Experiment: small-molecule microarray binders of probe aDKK1, primary screen, biochemical, biotinylated probe, 635/667 nm fluorescence (AID 1099);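 further: score merges 667nm spot fluorescence with signal to noise across triplicate slides; reference of the scale not given here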
Conditions: higher = more signal
Documented composite z-score across a set of compounds
Write the number on its own, no unit after it.

- COMPOUND: "COCCCNC(=O)[C@]1(CCC(=O)OC(C)(C)C)N=C(c2ccc(OCCCO)cc2)O[C@@H]1c1ccccc1N=[N+]=[N-]"
  QUANTITY: "composite z-score"
  TEST VALUE: 0.314

Value of composite z-score reported for the compound "CO[C@H]1O[C@H](CO)[C@@H](OC(=O)Nc2ccc(C#N)cc2)[C@H](OC(=O)c2cc3ccccc3[nH]2)[C@H]1OC(=O)c1cc2ccccc2[nH]1" is 0.149

Value of composite z-score reported for the compound C[C@@H]1CCC2C(=O)N(Cc3ccccc3)C[C@@H](O)CN2[C@H]1c1ccc(Br)cc1 (some centres undefined) is -0.276

Value of composite z-score reported for the compound "O=C1[C@H]2[C@H]3[C@H](O)[C@H](O)CC(=NOC[C@@H](O)COCc4ccco4)[C@H]3CC[C@H]2C(=O)N1C1CCCCC1" is -0.565

---

Assay: modulators of S6 phosphorylation in cells, primary screen, cell-based, A549, cytoblot, luminescence, serum-stimulated (AID 1158);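 further: serum-stimulated A549 lung adenocarcinoma cells; signal is phosphorylated S6 detected by cytoblot immunostaining with HRP secondary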
Conditions: A549 phospho-S6 cytoblot, 5 h, higher = more signal
QUANTITY: z-score

Some compounds with known z-score results, for comparison:
- SMILES CODE: "CCc1cc2c(nc1CC)CCN(CCC(C)=NOC[C@@H](O)COCc1ccco1)C2"
  TEST VALUE: -0.659
- SMILES CODE: "CO[C@@H]1COC(=O)CC=C[C@@H](C)COC(=O)[C@H](COCc2ccccc2)NC(=O)CC=C[C@H]1C"
  TEST VALUE: -0.186
- SMILES CODE: "C=CC[C@@H]1C=C[C@H](ON=Cc2ccc(C(=O)N3[C@H](c4ccc(C)cc4)[C@@H](C)CC[C@H]3C(=O)OC)cc2)[C@@H](CO)O1"
  TEST VALUE: -1.15

Proceed to the following item.
Value of z-score reported for the compound "CC(C)(C)N1C(=O)[C@H]2[C@H]3[C@H](O)[C@H](O)CC(=NOCc4ccccc4)[C@@H]3CC[C@H]2C1=O" is 0.581

---

Experiment: S. cerevisiae growth modulation with rapamycin, primary screen, strain BY4716, OD600, 96 h (AID 1091)
Conditions: higher = more signal, called active from +8 up or from −8 down
QUANTITY: z-score
Write the number on its own, no unit after it.

Some compounds with known z-score results, for comparison:
- COMPOUND: "O=C1O[C@@H](c2ccccc2)[C@@H](c2ccccc2)N2[C@@H](c3ccccc3OCCO)[C@]3(C(=O)Nc4ccc(C#CCCO)cc43)[C@@H](C(=O)O)[C@H]12"
  QUANTITY: "z-score"
  TEST VALUE: -0.103
- COMPOUND: "COCC1=C2[C@@H](CCc3ccccc3)OB(O)C[C@@H]2n2c(=O)n(-c3ccccc3)c(=O)n2C1"
  QUANTITY: "z-score"
  TEST VALUE: -0.644
- COMPOUND: "CO[C@@H]1COC(=O)[C@@H]2CCCN2C(=O)[C@@H](C)COC(=O)[C@H](COCc2ccccc2)NC(=O)CC=C[C@H]1C"
  QUANTITY: "z-score"
  TEST VALUE: 0.458
- COMPOUND: "COC(=O)[C@H](C)NC(=O)CCC1CC(OC(=O)NCc2cccc3ccccc23)CC2(CCCC(COC(=O)NCC3CCCCC3)O2)O1 (some centres not stated)"
  QUANTITY: "z-score"
  TEST VALUE: -0.825
- COMPOUND: "CC(C)C[C@@H]1NC(=O)[C@H]2C[C@@H](C(=O)NCCCCCCN(C)C)[C@@H](c3cccc(OCCO)c3)N2C1=O"
  QUANTITY: "z-score"
  TEST VALUE: -0.46

Value of z-score reported for the compound "CC(=O)OC[C@H]1O[C@H](CCON=C(C)CCC(=O)OC[C@H]2O[C@H](C#Cc3ccccc3)C=C[C@@H]2Oc2ccc(C)cc2)C=C[C@@H]1OC(C)=O" is -0.579

Value of z-score reported for the compound "O=C1O[C@@H](c2ccccc2)[C@@H](c2ccccc2)N2[C@@H](c3ccc(OCCO)cc3)[C@]3(C(=O)Nc4ccccc43)[C@@H](C(=O)N3CCN(c4ncccn4)CC3)[C@H]12" is 4.77

Value of z-score reported for the compound "CN(C)CCCNC(=O)[C@@H]1c2ccccc2C(=O)N(Cc2ccccc2)[C@H]1c1ccc(CO)cc1" is -0.848

Value of z-score reported for the compound Cn1cccc1C(O)C1C=CC2C(=O)NC(=O)C2N1Nc1ccccn1 (configuration not stated) is 0.0533

Value of z-score reported for the compound "COc1ccc(O[C@H]2C=C[C@@H](c3ccccc3)O[C@@H]2COC(=O)CCC(C)=NO[C@@H](C)c2cc(-c3c(C)cc(C)cc3C)no2)cc1" is -0.159

Value of z-score reported for the compound "CCCC=C(CCC)[C@@H](NC(=O)c1ccc(-c2ccccc2)cc1)c1ccc(C(=O)OC)cc1" is 1.93

Value of z-score reported for the compound "C/C=C\[C@@H](NCc1ccccc1Br)[C@@H](O)Cc1ccccc1" is -1.64

Value of z-score reported for the compound "COc1ccc(CCNC(=O)[C@@H]2c3ccccc3C(=O)N(c3ccc(C)cn3)[C@H]2c2ccc(CO)cc2)cc1" is -1.15

Value of z-score reported for the compound "O=C(CS)NCCCCCNC(=O)[C@H]1C[C@H]2C(=O)N3CCC[C@H]3C(=O)N2[C@H]1c1cccc(OCCO)c1" is -0.173

Value of z-score reported for the compound "CO[C@H]1O[C@H](CO)[C@@H](OC(=O)Nc2ccc(C#N)cc2)[C@H](OC(=O)c2cc3ccccc3[nH]2)[C@H]1OC(=O)c1cc2ccccc2[nH]1" is 0.507

Value of z-score reported for the compound CCCCCN1CC=CC23O[C@@H]4C=CCOC(=O)[C@@H]4[C@H]2C(=O)N(CCCCCCO)[C@@H]3C1=O (some centres not stated) is -0.291

Value of z-score reported for the compound CCOc1ccc(N2C(=O)/C(=C/C=C/c3ccccc3OC)S(=O)(=O)C2c2cccc([N+](=O)[O-])c2)cc1 (configuration not stated) is 0.648
